# maps each entry to its inhibition
- Tested on: Plasmodium falciparum
- Protocol text: Inhibition of Plasmodium falciparum recombinant falcipain-2 expressed in Escherichia coli at 100 uM after 20 min by spectrofluorometry
Peptide text beside a SMILES is read from it.
Unit % implied. Number only.

Reference set, count: 4
CC(C)[C@H](NC(=O)[C@@H](NC(=O)[C@@H](NC(=O)[C@H](CCC(N)=O)NC(=O)/C=C/C(=O)NCC(=O)NCC(=O)N[C@@H](Cc1ccccc1)C(=O)O)C1CCCCC1)C(C)C)C(N)=O (HELM PEPTIDE1{[O=C(/C=C/C(=O)[*:2])NCC(=O)NCC(=O)N[C@@H](Cc1ccccc1)C(=O)O].Q.[O=C([C@@H](N[*:1])C1CCCCC1)[*:2]].V.V.[am]}$$$$V2.0) = 83
CC(=O)NC[C@H](NC(=O)/C=C/C(=O)NCC(=O)NCC(=O)N[C@@H](Cc1ccccc1)C(=O)O)C(=O)N[C@@H](CC(C)C)C(=O)N[C@@H](CC(C)C)C(=O)N[C@H](C(N)=O)C(C)C (HELM PEPTIDE1{[O=C(/C=C/C(=O)[*:2])NCC(=O)NCC(=O)N[C@@H](Cc1ccccc1)C(=O)O].[O=C([C@H](CN[*:3])N[*:1])[*:2]].L.L.V.[am]}|PEPTIDE2{[ac]}$PEPTIDE1,PEPTIDE2,2:R3-1:R2$$$V2.0) = 79
CC(C)[C@H](NC(=O)[C@@H](NC(=O)[C@@H](NC(=O)[C@H](CC(N)=O)NC(=O)/C=C/C(=O)NCC(=O)NCC(=O)N[C@@H](Cc1ccccc1)C(=O)O)C1CCCCC1)C(C)C)C(N)=O (HELM PEPTIDE1{[O=C(/C=C/C(=O)[*:2])NCC(=O)NCC(=O)N[C@@H](Cc1ccccc1)C(=O)O].N.[O=C([C@@H](N[*:1])C1CCCCC1)[*:2]].V.V.[am]}$$$$V2.0) = 90
CC(C)C[C@H](NC(=O)[C@H](C)NC(=O)/C=C/C(=O)NCC(=O)NCC(=O)N[C@@H](Cc1ccccc1)C(=O)O)C(=O)N[C@@H](CC(C)C)C(=O)N[C@H](C(N)=O)C(C)C (HELM PEPTIDE1{[O=C(/C=C/C(=O)[*:2])NCC(=O)NCC(=O)N[C@@H](Cc1ccccc1)C(=O)O].A.L.L.V.[am]}$$$$V2.0) = 73

Prompt: Look at this molecule and give its reported inhibition. CC(C)C[C@H](NC(=O)[C@H](CCC(N)=O)NC(=O)/C=C/C(=O)N[C@@H](C)C(=O)NCC(=O)N[C@@H](Cc1ccccc1)C(=O)O)C(=O)N[C@H](C(=O)N[C@H](C(N)=O)C(C)C)C(C)C (HELM PEPTIDE1{[C[C@H](NC(=O)/C=C/C(=O)[*:2])C(=O)NCC(=O)N[C@@H](Cc1ccccc1)C(=O)O].Q.L.V.V.[am]}$$$$V2.0)
Response: 45

Prompt: Queued: CC(C)C[C@H](NC(=O)[C@@H](NC(=O)[C@H](CC(N)=O)NC(=O)/C=C/C(=O)NCC(=O)NCC(=O)N[C@@H](Cc1ccccc1)C(=O)O)c1ccccc1)C(=O)N[C@H](C(N)=O)C(C)C (HELM PEPTIDE1{[O=C(/C=C/C(=O)[*:2])NCC(=O)NCC(=O)N[C@@H](Cc1ccccc1)C(=O)O].N.[Phg].L.V.[am]}$$$$V2.0)
Response: 76
